assay: mTHPC concentration in tumor, skin and plasma of mice after injection (Trial 1 mTHPC, Trial 2 LMF); format: in vivo, mouse; conditions: skin, other: injection (site not specified), Trial 1, mTHPC 10 μg per mouse, after 24 hours
assay-readout: concentration at 24 h

Given Oc1cccc(-c2c3nc(c(-c4cccc(O)c4)c4ccc([nH]4)c(-c4cccc(O)c4)c4nc(c(-c5cccc(O)c5)c5ccc2[nH]5)CC4)C=C3)c1 [mTHPC, meta-tetra(hydroxyphenyl)chlorin] , state its recorded concentration at 24 h.
~260 ng/g
